Every entry's value here was drawn from patent EP1641803B1.

Biological target: human Kv1.5 (Homo sapiens, UniProt P22460)
Experiment: Kv1.5 Rb+ Efflux Assay
Conditions: inhibition of 86Rb+ efflux through Kv1.5; cells stably transfected with human Kv1.5; 10 point concentration response curves n=2; normalised to 2.5mM 4 amino-pyridine block
One threshold, 2 µM, splits the recorded IC50 values: lower ones are Y, equal or higher ones are N.

1. CCc1nc(NCc2ccco2)c2c(-c3ccccc3)csc2n1 [Example 153]
N
2. c1ccc(-c2csc3nc(NCC4CC4)nc(NCc4ccccn4)c23)cc1 [Example 188]
N

I wonder whether c1ccc(CNc2ncnc3scc(-c4cccs4)c23)cc1 [Example 97] has IC50 below 2 µM. Can you tell? N

Item c1ccc(-c2csc3nc(N4CCOCC4)nc(NCc4ccccn4)c23)cc1 [Example 197] : IC50 beneath 2 µM, strictly? Y

Problem: For the compound c1ccc(-c2csc3ncnc(NCc4ccco4)c23)cc1 [Example 83] , is IC50 under 2 µM? Y

Below 2 µM on IC50? Entry Brc1sc2ncnc(NCc3ccccn3)c2c1-c1ccccc1 [Example 164] Y

Lab log: compare recorded IC50 with 2 µM; is it strictly lower for c1ccc(CCNc2ncnc3scc(-c4cccs4)c23)cc1 [Example 163] ? N

In the record for Cc1ccc(-c2csc3ncnc(NCc4ccco4)c23)nc1 [Example 122] , is IC50 less than 2 µM? N

Bench note: check whether Fc1cccc(-c2csc3ncnc(NCc4ccccn4)c23)c1 [Example 331] shows IC50 below 2 µM Y

Input c1ccc(CNc2ncnc3scc(-c4ccc5c(c4)OCCO5)c23)nc1 [Example 320] ; condition: IC50 strictly below 2 µM. Does it hold? Y

Strictly below 2 µM in IC50? Cc1ccc(-c2csc3ncnc(NCc4ccccn4)c23)nc1 [Example 121] N

Dear reviewer, please state whether Cc1ccc(-c2csc3ncnc(NCCc4ccccc4)c23)cc1 [Example 130] has IC50 strictly beneath 2 µM. N

Threshold test, IC50 < 2 µM: CCN1CCCC1CNc1ncnc2scc(-c3ccccc3)c12 (centres unmarked) [Example 102] N

Does the reported IC50 of CCOC(=O)Cc1nc(NCc2ccccn2)c2c(-c3ccccc3)csc2n1 [Example 237] stay below 2 µM? Y

Find out if reported IC50 for c1ccc(COc2nc(NCc3ccco3)c3c(-c4ccccc4)csc3n2)cc1 [Example 195] is less than 2 µM N

====

# inhibition at 1 µM per record follows
Target: hKv1.5 (Homo sapiens, UniProt P22460)
Sequence (P22460 whole entry): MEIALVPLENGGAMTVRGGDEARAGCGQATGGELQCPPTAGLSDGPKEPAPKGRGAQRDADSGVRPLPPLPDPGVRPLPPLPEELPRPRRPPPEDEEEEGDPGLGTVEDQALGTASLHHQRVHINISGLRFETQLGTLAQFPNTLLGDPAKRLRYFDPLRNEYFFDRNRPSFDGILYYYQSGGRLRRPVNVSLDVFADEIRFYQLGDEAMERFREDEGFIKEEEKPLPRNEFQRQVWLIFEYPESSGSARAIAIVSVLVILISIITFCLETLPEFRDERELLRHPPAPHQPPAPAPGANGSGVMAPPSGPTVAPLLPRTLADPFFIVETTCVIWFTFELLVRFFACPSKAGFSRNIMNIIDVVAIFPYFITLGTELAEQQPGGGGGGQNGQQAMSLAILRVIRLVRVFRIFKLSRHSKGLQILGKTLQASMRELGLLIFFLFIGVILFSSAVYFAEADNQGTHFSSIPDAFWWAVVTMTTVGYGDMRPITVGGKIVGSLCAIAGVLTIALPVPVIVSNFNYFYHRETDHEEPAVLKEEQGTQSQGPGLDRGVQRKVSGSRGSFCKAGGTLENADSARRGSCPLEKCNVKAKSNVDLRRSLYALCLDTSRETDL
Test: Kv1.5 Autopatch Electrophysiology (whole cell patch-clamp)
Assay type: cell-based
Details: compound at 1µM, room temperature (22-24°C), held at -80mV, step to 0mV for 1000ms, total charge measured
The response must be a number in % with no trailing unit.

Worked cases, inhibition at 1 µM given:
1. Cc1ccc(-c2csc3ncnc(Oc4ccc5ccccc5c4)c23)cc1 [Example 129]
47.4
2. c1ccc(-c2csc3nc(CN4CCOCC4)nc(NCc4ccccn4)c23)cc1 [Example 303]
63

Form: Entry = Cn1cccc1CNc1ncnc2scc(-c3ccccc3)c12 [Example 110] | System = hKv1.5 (Homo sapiens, UniProt P22460) | inhibition at 1 µM = ____ 14.2

GET /values?readout=inhibition at 1 µM&system=hKv1.5 (Homo sapiens, UniProt P22460)&item= c1ccc(-c2csc3ncnc(NC4CCCc5ccccc54)c23)cc1 (centres unmarked) [Example 158] 83.4

Please state recorded inhibition at 1 µM (tested on hKv1.5 (Homo sapiens, UniProt P22460)) of c1ccc(COc2ncnc3scc(-c4ccccc4)c23)cc1 [Example 119] 44.1

====

Biological target: human Kv1.5 (Homo sapiens)
Assay: Kv1.5 Rb+ Efflux Assay
Settings: inhibition of 86Rb+ efflux through Kv1.5; cells stably transfected with human Kv1.5; 10 point concentration response curves n=2; normalised to 2.5mM 4 amino-pyridine block
REPORTED_PROPERTY: IC50 (µM)
I only need the number, in µM, no unit after it.

Known IC50 results, listed for orientation:
1. c1ccc(-c2nc(CNc3ncnc4scc(-c5ccccc5)c34)cs2)cc1
19.7
2. FC(F)(F)c1nc(NCc2ccccn2)c2c(-c3ccccc3)csc2n1
1.68
3. FC1(F)Oc2ccc(-c3csc4ncnc(NCc5ccccn5)c34)cc2O1
10.4
4. c1ccc(CNc2ncnc3scc(-c4ccc5cc[nH]c5c4)c23)nc1
0.04
5. Cc1ccc(-c2csc3ncnc(NCCc4ccc5c(c4)OCCO5)c23)cc1C
4.58

Tell me the measured IC50 of Nc1nc(NCc2ccccn2)c2c(-c3ccc(F)cc3)csc2n1 , please. 11.9

====

Listing of recorded inhibition at 1 µM by entry.
Target: UniProt:P22460
Assay: Kv1.5 Autopatch Electrophysiology (whole cell patch-clamp)
Format: cell-based
Settings: compound at 1µM, room temperature (22-24°C), held at -80mV, step to 0mV for 1000ms, total charge measured
Express your answer in %, writing the number without its unit.

Sample OCCNc1nc(NCc2ccccn2)c2c(-c3ccccc3)csc2n1 — what was its inhibition at 1 µM? 97.1

Please look up its inhibition at 1 µM: Clc1cccc(-c2csc3ncnc(NCc4ccccn4)c23)c1 95

====

Target: human Kv1.5 (Homo sapiens, UniProt P22460)
Experiment: Kv1.5 Rb+ Efflux Assay
Conditions: inhibition of 86Rb+ efflux through Kv1.5; cells stably transfected with human Kv1.5; 10 point concentration response curves n=2; normalised to 2.5mM 4 amino-pyridine block
Measured IC50 by item
Note: unit µM is implicit; provide only the numeric part.

Known IC50 results, listed for orientation:
1) Cn1cccc1CNc1ncnc2scc(-c3ccccc3)c12
3.9
2) Cc1csc2ncnc(NCCc3ccc(Cl)cc3)c12
6.91
3) Cc1ccccc1-c1csc2ncnc(NCc3ccco3)c12
1.32

Enter reported IC50 observed with human Kv1.5 (Homo sapiens, UniProt P22460) for FC(F)(F)c1ccc(-c2csc3ncnc(NCc4ccccn4)c23)cc1 2.9

Query for human Kv1.5 (Homo sapiens, UniProt P22460): what IC50 does the record show for Clc1ccc(-c2csc3ncnc(NCc4ccccn4)c23)cc1 ? 2.54

Requested read-out IC50, target or system human Kv1.5 (Homo sapiens, UniProt P22460), entry Clc1cccc(-c2csc3ncnc(NCc4ccccn4)c23)c1 1.52

====

Target: human Kv1.5 (Homo sapiens, UniProt P22460)
Experiment: Kv1.5 Rb+ Efflux Assay
Details: inhibition of 86Rb+ efflux through Kv1.5; cells stably transfected with human Kv1.5; 10 point concentration response curves n=2; normalised to 2.5mM 4 amino-pyridine block
Procedure: The pore of a potassium channel is permeable to other monovalent cations such as Rb^+ and Tl^+. Analysis of cellular efflux of potassium channel permeable ions enables potassium channel activity to be monitored directly. […] After the final incubation 80µl/100µl of the reaction from each well was transferred to equivalent wells in a Packard "Optiplate" white 96 well plate and counted in a Packard TopCount liquid scintillation counter by Cerenkov emission. […]
REPORTED_PROPERTY: pIC50
Remember, pIC50 is on a log scale: it is -log10 of the molar concentration.

1) c1ccc(-c2csc3ncnc(NCc4ccccn4)c23)cc1
6.55
2) Cc1nc(NCc2ccccn2)c2c(-c3ccc(F)cc3)csc2n1
5.79
3) CCOC(=O)Cc1nc(NCc2ccco2)c2c(-c3ccccc3)csc2n1
5.48
4) CC(C)c1nc(NCc2ccccn2)c2c(-c3ccccc3)csc2n1
5.82
5) c1ccc(COc2ncnc3scc(-c4ccccc4)c23)cc1
5.24

Bench note: what pIC50 did CC(C)(C)c1ccc(-c2csc3ncnc(NCc4ccco4)c23)cc1 show? 5.52

What value of measured pIC50 is listed for OCCNc1nc(NCc2ccccn2)c2c(-c3ccccc3)csc2n1 ? 6.59

Looking for the measured pIC50 of Cc1nc(NCc2ccco2)c2c(-c3ccccc3)csc2n1 , can you help? 6.85

Returns the measured pIC50 for the input molecule. Input: COCCOc1nc(NCc2ccccn2)c2c(-c3ccccc3)csc2n1 6.32

====

Target: human Kv1.5 (Homo sapiens)
Assay: Kv1.5 Rb+ Efflux Assay
Settings: inhibition of 86Rb+ efflux through Kv1.5; cells stably transfected with human Kv1.5; 10 point concentration response curves n=2; normalised to 2.5mM 4 amino-pyridine block
Rule: IC50 below 2000 nM gives 1, anything at or above gives -1.

These solved cases illustrate the format of a correct answer.
1) c1ccc(-c2csc3ncnc(NCc4cccs4)c23)cc1
-1
2) Cc1ccc(CNc2ncnc3scc(-c4ccccc4)c23)o1
1
3) CCc1nc(NCc2ccccn2)c2c(-c3ccccc3)csc2n1
1
4) Brc1sc2ncnc(NCc3ccco3)c2c1-c1ccccc1
1
5) N#Cc1nc(NCc2ccccn2)c2c(-c3ccccc3)csc2n1
-1

API: query returns whether the compound falls strictly under 2000 nM in IC50. Query: Fc1ccc(-c2csc3ncnc(NCc4ccccn4)c23)cc1F -1

Please let me know if COc1ccc(-c2csc3ncnc(NCc4ccco4)c23)cc1 shows IC50 below 2000 nM. 1

Is it true that IC50 reported for COc1cccc(-c2csc3ncnc(NCc4ccccn4)c23)c1 is less than 2000 nM? 1

Determine if c1ccc(-c2csc3ncnc(NCC4CCCCC4)c23)cc1 shows IC50 strictly lower than 2000 nM. -1

Please let me know if c1ccc(-c2csc3ncnc(SCc4ccco4)c23)cc1 shows IC50 below 2000 nM. -1
